Source: paper PMC9767416

test: Solubility by nephelometry (water, buffer pH 7.4); format: physicochemical; settings: ultrapure water, nephelometry

chemical-structure: CN(C)c1cccc(-c2cccc(C(N)=O)c2)c1
Sol. (H2O): lower than 6 μg/mL

chemical-structure: CO[C@H]1C[C@@H]2CC[C@@H](C)[C@@](O)(O2)C(=O)C(=O)N2CCCC[C@H]2C(=O)O[C@H]([C@H](C)C[C@@H]2CC[C@@H](O)[C@H](OC)C2)CC(=O)[C@H](C)/C=C(\C)[C@@H](O)[C@@H](OC)C(=O)[C@H](C)C[C@H](C)/C=C/C=C/C=C/1C
Sol. (H2O): lower than 6 μg/mL

chemical-structure: Nc1ccc(C(=O)Nc2cccc(-c3c[nH]c4ncccc34)c2)cc1O
Sol. (H2O): lower than 6 μg/mL

chemical-structure: CC(C)n1nc(-c2cc3cc(O)ccc3[nH]2)c2c(N)ncnc21
Sol. (H2O): <6 µg/mL

---

assay: Shake-flask partition coefficient logP and distribution coefficient logD (pH 7.4); type: physicochemical; details: n-octanol/sodium phosphate buffer, pH 7.4, shake-flask, n-octanol/sodium phosphate buffer pH 7.4; read-out: logD
1 if logD is below 2. -1 if not; exact matches included in -1.

molecule: CO[C@H]1C[C@@H]2CC[C@@H](C)[C@@](O)(O2)C(=O)C(=O)N2CCCC[C@H]2C(=O)O[C@H]([C@H](C)C[C@@H]2CC[C@@H](O)[C@H](OC)C2)CC(=O)[C@H](C)/C=C(\C)[C@@H](O)[C@@H](OC)C(=O)[C@H](C)C[C@H](C)/C=C/C=C/C=C/1C [Rapamycin, rapamycin]
cat: -1

molecule: O=C(O[C@@H]1Cc2c(O)cc(O)cc2O[C@@H]1c1ccc(O)c(O)c1)c1cc(O)c(O)c(O)c1 [Compound 7, epicatechin gallate]
cat: 1

molecule: COc1ccc(CN2CCNC2=N)cc1OC [Compound 5]
cat: 1

molecule: NC(=O)[C@@H]1CC[C@H](C(=O)O)N1 [Compound 4]
cat: 1

molecule: CN(C)c1cccc(-c2cccc(C(N)=O)c2)c1 [Compound 6]
cat: -1

Now look at this one.
Would you kindly verify if logD of Nc1ccc(C(=O)Nc2cccc(-c3c[nH]c4ncccc34)c2)cc1O [Compound 3] is strictly less than 2? -1

---

Form field: pKa (one value per entry).
experiment: Dissociation constants by spectrophotometric titration; type: physicochemical; conditions: ultrapure water, 20°C, read-out: pKa1
Just the number, please.

Completed entries (count: 4):
chemical-structure: NC(=O)[C@@H]1CC[C@H](C(=O)O)N1
pKa: 3.17
--
chemical-structure: CO[C@H]1C[C@@H]2CC[C@@H](C)[C@@](O)(O2)C(=O)C(=O)N2CCCC[C@H]2C(=O)O[C@H]([C@H](C)C[C@@H]2CC[C@@H](O)[C@H](OC)C2)CC(=O)[C@H](C)/C=C(\C)[C@@H](O)[C@@H](OC)C(=O)[C@H](C)C[C@H](C)/C=C/C=C/C=C/1C
pKa: 10.7
--
chemical-structure: CN(C)c1cccc(-c2cccc(C(N)=O)c2)c1
pKa: 4.8
--
chemical-structure: c1ccc2[nH]c(NC3CCNCC3)nc2c1
pKa: 6.18

Look up and state reported pKa for Nc1ccc(C(=O)Nc2cccc(-c3c[nH]c4ncccc34)c2)cc1O 3.6

---

system: C57BL/6 (B6) male mice; assay: Blood counts in the tolerability study; format: in vivo; details: mouse, in vivo, po, 50 mg/kg
attribute-measured: RBC

Determine its reported RBC: Nc1ccc(C(=O)Nc2cccc(-c3c[nH]c4ncccc34)c2)cc1O 9.99 10^12/L

---

test system: C57BL/6 (B6) male mice; assay: Blood counts in the tolerability study; format: in vivo; settings: mouse, in vivo, po, 5 mg/kg
attribute-measured: RBC

Give me measured RBC, please, for this compound: Nc1ccc(C(=O)Nc2cccc(-c3c[nH]c4ncccc34)c2)cc1O 8.28 10^12/L

---

assay: Solubility by nephelometry (water, buffer pH 7.4); type: physicochemical; settings: aqueous buffer; sodium phosphate buffer pH 7.4, nephelometry; read-out: Sol. (buffer 7.4)
solubility kinetic at 30 s for assorted molecules

molecule: CO[C@H]1C[C@@H]2CC[C@@H](C)[C@@](O)(O2)C(=O)C(=O)N2CCCC[C@H]2C(=O)O[C@H]([C@H](C)C[C@@H]2CC[C@@H](O)[C@H](OC)C2)CC(=O)[C@H](C)/C=C(\C)[C@@H](O)[C@@H](OC)C(=O)[C@H](C)C[C@H](C)/C=C/C=C/C=C/1C
attribute-measured: solubility kinetic at 30 s
result: < 6 µg/mL

Respond only with solubility kinetic at 30 s recorded for NC(=O)[C@@H]1CC[C@H](C(=O)O)N1 > 1000 µg/mL

Answer with the recorded solubility kinetic at 30 s of O=C(O[C@@H]1Cc2c(O)cc(O)cc2O[C@@H]1c1ccc(O)c(O)c1)c1cc(O)c(O)c(O)c1 [Compound 7, epicatechin gallate] only. > 1000 µg/mL

---

Overview of recorded pKa for various compounds
assay: Dissociation constants by spectrophotometric titration; assay type: physicochemical; settings: ultrapure water, 20°C, read-out: pKa2
Give the value as a plain number.

chemical-structure: NC(=O)[C@@H]1CC[C@H](C(=O)O)N1
pKa: 7.8

Alright, here's another compound for you.
Respond only with pKa recorded for Nc1ccc(C(=O)Nc2cccc(-c3c[nH]c4ncccc34)c2)cc1O 7.91

---

Tested on: C57BL/6 (B6) male mice
Assay: Blood counts in the tolerability study
Format: in vivo
Settings: mouse, in vivo, po, 50 mg/kg
Method: Compounds were dissolved in 20 μL DMSO and completed into 200 μL with corn oil. During the experiments, mice behavior and possible apparent signs of toxicity were monitored daily. The body weights were determined on days 0, 4, and 8. On day 8, blood (25 μL) was withdrawn using a capillary pipette containing anticoagulant (heparin) from the retroorbital sinus into EDTA-containing tubes. Basic hematological parameters were measured using the Mindray BC-5300 Vet. […]
attribute-measured: Mon

Give the measured Mon for Nc1ccc(C(=O)Nc2cccc(-c3c[nH]c4ncccc34)c2)cc1O 0.72 10^9/L

---

test system: C57BL/6 (B6) male mice; test: Blood counts in the tolerability study; assay type: in vivo; details: mice, 25 mg/kg p.o. days 0, 3, 5; blood day 8; AVG
attribute-measured: RBC

Query RBC for CC(C)n1nc(-c2cc3cc(O)ccc3[nH]2)c2c(N)ncnc21 9.96 10^12/L

---

tested on: C57BL/6 (B6) male mice; assay: Blood counts in the tolerability study; type: in vivo; conditions: mice, 5 mg/kg p.o. days 0, 3, 5; blood day 8; AVG; unit assumed
attribute-measured: Mon

Identify the reported Mon for the following entry. CC(C)n1nc(-c2cc3cc(O)ccc3[nH]2)c2c(N)ncnc21 [Torkinib, torkinib] 0.73 10^9/L

---

experiment: Solubility by nephelometry (water, buffer pH 7.4); assay type: physicochemical; conditions: aqueous buffer; sodium phosphate buffer pH 7.4, nephelometry; read-out: Sol. (buffer 7.4)
Parameter: solubility kinetic at 30 s. Scope: all listed entries.

chemical-structure: Nc1ccc(C(=O)Nc2cccc(-c3c[nH]c4ncccc34)c2)cc1O
result: < 6 µg/mL
//
chemical-structure: Br.Br.c1ccc2[nH]c(NC3CCNCC3)nc2c1
result: 299 µg/mL
//
chemical-structure: c1ccc2[nH]c(NC3CCNCC3)nc2c1
result: > 160 µg/mL

Next compound, please.
Specify measured solubility kinetic at 30 s for CN(C)c1cccc(-c2cccc(C(N)=O)c2)c1 . < 6 µg/mL

---

test: Solubility by nephelometry (water, buffer pH 7.4); type: physicochemical; settings: medium not told apart (water and buffer pH 7.4)
Quick list: solubility at 30 s per entry.

Example entries and their recorded answers appear below.
molecule: O=C(O[C@@H]1Cc2c(O)cc(O)cc2O[C@@H]1c1ccc(O)c(O)c1)c1cc(O)c(O)c(O)c1 [Compound 7, epicatechin gallate]
solubility at 30 s: > 1000 µg/mL

molecule: NC(=O)[C@@H]1CC[C@H](C(=O)O)N1 [Compound 4]
solubility at 30 s: > 1000 µg/mL

We next turn to a different molecule, shown below.
Give the measured solubility at 30 s for Br.Br.c1ccc2[nH]c(NC3CCNCC3)nc2c1 [Compound 2] > 1000 µg/mL

---

experiment: Solubility by nephelometry (water, buffer pH 7.4); assay type: physicochemical; conditions: buffer pH 7.4
Readings of logSpH 7.4 for the listed compounds

Previously resolved entries follow.
compound: CC(C)n1nc(-c2cc3cc(O)ccc3[nH]2)c2c(N)ncnc21
logSpH 7.4: <−4.71
--
compound: CN(C)c1cccc(-c2cccc(C(N)=O)c2)c1
logSpH 7.4: <−4.60
--
compound: Br.Br.c1ccc2[nH]c(NC3CCNCC3)nc2c1
logSpH 7.4: −3.10

Give logSpH 7.4 for CO[C@H]1C[C@@H]2CC[C@@H](C)[C@@](O)(O2)C(=O)C(=O)N2CCCC[C@H]2C(=O)O[C@H]([C@H](C)C[C@@H]2CC[C@@H](O)[C@H](OC)C2)CC(=O)[C@H](C)/C=C(\C)[C@@H](O)[C@@H](OC)C(=O)[C@H](C)C[C@H](C)/C=C/C=C/C=C/1C <−5.18

State, in one line, measured logSpH 7.4 of Nc1ccc(C(=O)Nc2cccc(-c3c[nH]c4ncccc34)c2)cc1O <−4.76

Give the reported value of logSpH 7.4 for this record: NC(=O)[C@@H]1CC[C@H](C(=O)O)N1 >−2.20

For O=C(O[C@@H]1Cc2c(O)cc(O)cc2O[C@@H]1c1ccc(O)c(O)c1)c1cc(O)c(O)c(O)c1 [Compound 7, epicatechin gallate] , write its logSpH 7.4. >−2.65
